From: paper PMC5540273

System: RET
Details: concentration: 1 μM, replicates: in singlicate; n = 1;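 further: KINOMEscan kinase panel screen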
# %Inh per record follows
The answer is to be given in %; state only the numeric part.

CCc1nc(-c2cccc(N(C)S(=O)(=O)c3ccccc3)c2)c(-c2ccnc(Nc3ccc(N4CCN(C(C)=O)CC4)nc3)n2)s1 ... 0
FC(F)(F)c1ccc(-c2nn3ncccc3c2-c2ccnc(Nc3cccc(C(F)(F)F)c3)n2)cc1 ... 0
Cl.c1ccc(Cn2ncc3cc(Nc4ncnc5ccccc45)ccc32)cc1 ... 13

Let us move to another entry and its %Inh.
Tested system RET; %Inh recorded for CS(=O)(=O)CCNCc1nc(-c2ccc3ncnc(Nc4ccc(OCc5cccc(F)c5)c(Cl)c4)c3c2)cs1.Cl was 0

###

Test system: CAMK1B
Conditions: concentration: 1 μM, replicates: in singlicate; n = 1
MEASURED_PARAMETER: %Inh
# include the unit after the value

COc1ccc(NC(=O)Nc2ccc(C)c(-c3ccc(C(=O)Nc4ccncc4)cc3)c2)cc1 [GSK1398475] ... 1%

So, CNc1nccc(-c2c(-c3ccc(F)cc3)ncn2CCCN2CCOCC2)n1 [SB-222516] ? Its %Inh was 0%

# %Inh of Clc1cc(Nc2ncnc3cc[nH]c23)ccc1OCc1ccccn1 = 4%

The compound listed as CSc1ccc(NC2=C(c3ccccc3Cl)C(=O)NC2=O)cc1 [SB-342411] shows %Inh equal to 0%

###

Test system: FGFR2
Conditions: concentration: 1 μM, replicates: in singlicate; n = 1
MEASURED_PARAMETER: %Inh
Returns: string containing the number followed by the unit.

The cases that follow already have their %Inh on record.
CN1c2ccc(-c3ccc(C(=O)NCCO)cc3)cc2-c2[nH]ncc2S1(=O)=O ... 0%
CNc1nccc(-c2c(-c3ccc(F)cc3)ncn2CCCN2CCOCC2)n1 ... 0%

Record Fc1cccc(COc2ccc(Nc3ncnc4cc[nH]c34)cc2Cl)c1 . Reported %Inh: 8%

Field %Inh (entry Cl.Cn1ccc(-c2cccc(Nc3ccnc4cc(-c5nccs5)ccc34)c2)n1 ) reads 0%

Looking up CNc1nccc(-c2c(-c3ccc(F)cc3)ncn2C2CCN(C)CC2)n1 , I found its %Inh recorded as 0%

Reported %Inh of CN1CCC(n2cnc(-c3ccc(F)cc3)c2-c2ccnc(NC3CCNCC3)n2)CC1 : 0%

The recorded %Inh for CSc1ccc(NC2=C(c3ccccc3Cl)C(=O)NC2=O)cc1 is 4%

What the record says about FC(F)(F)c1ccc(-c2nn3ncccc3c2-c2ccnc(Nc3cccc(C(F)(F)F)c3)n2)cc1 : %Inh is 100%

// recorded %Inh for COc1ccc(-c2nc3n(c2-c2ccncc2)CCC3)cc1 : 0%

###

System: JAK1(JH2domain-pseudokinase)
Settings: concentration: 1 μM, replicates: in singlicate; n = 1
MEASURED_PARAMETER: %Inh

Examples with their reported %Inh follow.
c1ccc(-c2ccc3c(-c4ccnc(Nc5ccc6c(c5)OCCO6)n4)cnn3n2)cc1 ... 0%
CS(=O)(=O)CCNCc1nc(-c2ccc3ncnc(Nc4ccc(OCc5cccc(F)c5)c(Cl)c4)c3c2)cs1.Cl ... 0%
Nc1nc(-c2ccc3c(N)n[nH]c3c2)cc(N2CCCCC2)n1 ... 0%

// field: %Inh; key: CC(C)(C)OC(=O)NC1CCCN(c2cc(-c3ccc4c(N)n[nH]c4c3)nc(N)n2)C1 (stereo not shown) ; value = 15%
